test: gradient 5% acetonitrile 3 min, to 50% in 2 min, to 85% in 15 min, held 3 min, 100 µL/min; settings: column: Zorbax Extend-C18 2.1 x 50 mm; eluents: water / acetonitrile, 0.1% formic acid
quantity measured: RP-LC retention time (s)

Cn1cc(-c2ccncc2)cc1C(=O)NCc1ccccc1Br
655
CCOC(=O)c1nnc2c(-c3ccc(F)cc3)c(C)nn2c1C
986
O=C(NCCC1=CCCCC1)c1cnc(-c2ccccc2)nc1-c1ccncc1
966
CCOc1ccc(C2=NC3(CCN(CC)CC3)NC(c3ccccc3O)C2)cc1 (stereo not given)
583
COc1ccccc1CNC(=O)[C@@H]1[C@H](c2cc(OC)c(OC)c(OC)c2)c2cc3c(cc2[C@H](O)[C@H]1CO)OCO3
713
